Experiment: Oral bioavailability in rat at 5 mg/kg
Type: ADME, organism-based
Conditions: in vivo
quantity-kind: bioavailability (%)

>>> test_value("O=C(c1cccc(F)c1-c1ncccn1)N1[C@@H]2CC[C@H]1[C@H](Nc1cnc(C(F)(F)F)cn1)C2")
119

====

Experiment: Stability in dog liver microsomes assessed as extraction ratio
Type: ADME, Canis lupus familiaris, Microsome
Conditions: read-out: ERH
quantity-kind: hepatic extraction ratio

>>> test_value("O=C(c1cccc(F)c1-c1ncccn1)N1[C@@H]2CC[C@H]1[C@H](Nc1cnc(C(F)(F)F)cn1)C2")
"< 0.3"

====

Entries and their Activity values follow.
Assay: Ex vivo receptor occupancy at OX1R in Sprague-Dawley rat brain tenia tecta using [3H]SB-674042 labelling at 30 mg/kg, po measured after 2 hrs by autoradiography
Format: functional
quantity-kind: Activity (%)

>>> test_value("Cc1ccc(-n2nccn2)c(C(=O)N2C3CCC2C(COc2ccc(F)cn2)C3)c1 (racemic)")
43
>>> test_value("Cc1ccc(-n2nccn2)c(C(=O)N2[C@@H]3CC[C@H]2[C@H](COc2ccc(F)cn2)C3)n1")
30
>>> test_value("Cc1ccc(-n2nccn2)c(C(=O)N2[C@@H]3CC[C@H]2[C@H](COc2ccccn2)C3)n1")
20
>>> test_value("O=C(c1cccc(F)c1-c1ncccn1)N1[C@@H]2CC[C@H]1[C@H](Nc1cnc(C(F)(F)F)cn1)C2")
100
>>> test_value("O=C(c1ccc(F)cc1-c1ncccn1)N1[C@@H]2CC[C@H]1[C@H](Nc1cnc(C(F)(F)F)cn1)C2")
17

====

Assay: Stability in human liver microsomes assessed as extraction ratio
Format: ADME, Microsome
Conditions: read-out: ERH
Field 'label' (enum: 1 (yes) / 0 (no)). Set to 1 (yes) when hepatic extraction ratio is strictly under 0.8; else 0 (no).

>>> class_assignment("Cc1ccc(-n2nccn2)c(C(=O)N2C3CCC2C(Nc2ccc(C(F)(F)F)cn2)C3)n1 (racemic)")
"0 (no)"
>>> class_assignment("O=C(c1cccc(F)c1-c1ncccn1)N1[C@@H]2CC[C@H]1[C@H](Nc1ccc(C(F)(F)F)cn1)C2")
"1 (yes)"
>>> class_assignment("Cc1ccc(-c2ncccn2)c(C(=O)N2C3CCC2C(COc2ccc(F)cn2)C3)c1 (racemic)")
"0 (no)"
>>> class_assignment("O=C(c1ccccc1-n1nccn1)N1C2CCC1C(Nc1ccc(C(F)(F)F)cn1)C2 (racemic)")
"1 (yes)"
>>> class_assignment("O=C(c1cccc(F)c1-c1ncccn1)N1[C@@H]2CC[C@H]1[C@H](Nc1cnc(C(F)(F)F)cn1)C2")
"1 (yes)"
>>> class_assignment("O=C(c1cccc(F)c1-c1ncccn1)N1[C@@H]2CC[C@H]1[C@H](Nc1ncc(C(F)(F)F)cc1F)C2")
"1 (yes)"
>>> class_assignment("O=C(c1ccccc1-c1cccs1)N1C2CCC1C(COc1ccc(F)cn1)C2 (racemic)")
"0 (no)"

====

Assay: Oral bioavailability in mouse at 5 mg/kg
Format: ADME, organism-based
Settings: in vivo
quantity-kind: bioavailability (%)

>>> test_value("O=C(c1cccc(F)c1-c1ncccn1)N1[C@@H]2CC[C@H]1[C@H](Nc1cnc(C(F)(F)F)cn1)C2")
58

====

Assay: Cmax in rat assessed as NOAEL at 200 mg/kg/day, po administered as repeated dose for 13 days
Type: ADME, organism-based
Parameters: route oral, time 13 day, dose 200 mg/kg/day
Details: in vivo
quantity-kind: Cmax

>>> test_value("O=C(c1cccc(F)c1-c1ncccn1)N1[C@@H]2CC[C@H]1[C@H](Nc1cnc(C(F)(F)F)cn1)C2")
"6980 ng/mL"

====

Test: AUC in human at 50 mg/day
Type: ADME
Parameters: dose 50 mg
quantity-kind: AUC

>>> test_value("O=C(c1cccc(F)c1-c1ncccn1)N1[C@@H]2CC[C@H]1[C@H](Nc1cnc(C(F)(F)F)cn1)C2")
"6870 ng·h/mL"

====

Experiment: Permeability across basolateral to apical side in MDCK cells
Type: ADME, cell-based, Canis lupus familiaris
Details: dog
Overview of reported Papp B→A across a group of molecules:
quantity-kind: Papp B→A (×10⁻⁶ cm/s)

>>> test_value("O=C(c1ccccc1-c1ncccn1)N1[C@@H]2CC[C@H]1[C@H](Nc1cnc(C(F)(F)F)cn1)C2")
68
>>> test_value("O=C(c1cccc(F)c1-c1ncccn1)N1[C@@H]2CC[C@H]1[C@H](Nc1cnc(C(F)(F)F)cn1)C2")
64.4
>>> test_value("O=C(c1cccc(F)c1-c1ncccn1)N1[C@@H]2CC[C@H]1[C@H](Nc1ncc(C(F)(F)F)cc1F)C2")
71.3

====

The following compounds are shown together with reported Papp A→B values.
Assay: Permeability across apical to basolateral side in MDCK cells
Type: ADME, cell-based, Canis lupus familiaris
Conditions: dog
quantity-kind: Papp A→B (×10⁻⁶ cm/s)

>>> test_value("O=C(c1cccc(F)c1-c1ncccn1)N1[C@@H]2CC[C@H]1[C@H](Nc1ncc(C(F)(F)F)cc1F)C2")
7.7
>>> test_value("O=C(c1ccccc1-c1ncccn1)N1[C@@H]2CC[C@H]1[C@H](Nc1cnc(C(F)(F)F)cn1)C2")
1.1
>>> test_value("O=C(c1cccc(F)c1-c1ncccn1)N1[C@@H]2CC[C@H]1[C@H](Nc1cnc(C(F)(F)F)cn1)C2")
1.95

====

Target: Orexin/Hypocretin receptor type 1 (Homo sapiens)
Sequence (O43613 whole entry): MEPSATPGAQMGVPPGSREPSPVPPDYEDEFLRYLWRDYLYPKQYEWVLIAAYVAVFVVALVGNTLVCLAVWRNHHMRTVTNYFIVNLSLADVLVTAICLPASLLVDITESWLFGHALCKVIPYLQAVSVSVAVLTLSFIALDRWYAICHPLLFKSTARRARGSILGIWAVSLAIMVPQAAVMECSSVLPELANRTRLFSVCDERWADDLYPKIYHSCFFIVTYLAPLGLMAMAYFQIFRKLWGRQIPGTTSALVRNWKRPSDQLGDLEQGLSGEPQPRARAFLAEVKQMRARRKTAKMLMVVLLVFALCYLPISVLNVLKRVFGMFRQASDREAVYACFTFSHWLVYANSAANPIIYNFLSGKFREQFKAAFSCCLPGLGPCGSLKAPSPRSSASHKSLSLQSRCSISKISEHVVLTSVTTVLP
pKi: −log10 of the molar value.
quantity-kind: pKi

>>> test_value("O=C(c1cccn2ccnc12)N1CCC(F)(F)[C@@H](Oc2ccc3ccccc3n2)C1")
8.74
>>> test_value("O=C(c1ccccc1-n1nccn1)N1[C@@H]2CC[C@H]1[C@H](Nc1cnc(C(F)(F)F)cn1)C2")
7.52
>>> test_value("O=C(c1ccccc1-n1nccn1)N1C2CCC1C(Nc1ccc(C(F)(F)F)cn1)C2 (racemic)")
7.28
>>> test_value("O=C(c1cccc(F)c1-c1ncccn1)N1C2CCC1C(Oc1ccc(C(F)(F)F)cn1)C2 (racemic)")
6.89
>>> test_value("O=C(c1cc(F)ccc1-n1nccn1)N1C2CCC1C(COc1ccc(F)cn1)C2 (racemic)")
7.23

====

Experiment: Stability in human liver microsomes assessed as extraction ratio
Type: ADME, Microsome
Conditions: read-out: ERH
quantity-kind: hepatic extraction ratio

>>> test_value("O=C(c1cccc(F)c1-c1ncccn1)N1[C@@H]2CC[C@H]1[C@H](Nc1ncc(C(F)(F)F)cc1Cl)C2")
0.61
>>> test_value("Cc1ccc(-c2ncccn2)c(C(=O)N2[C@@H]3CC[C@H]2[C@H](COc2ccccn2)C3)n1")
0.61
>>> test_value("O=C(c1ccccc1-n1nccn1)N1C2CCC1C(Nc1ccc(Cl)cn1)C2 (racemic)")
0.88
>>> test_value("O=C(c1ccc(F)cc1-c1ncccn1)N1[C@@H]2CC[C@H]1[C@H](Nc1cnc(C(F)(F)F)cn1)C2")
0.81
>>> test_value("O=C(c1ccccc1-n1nccn1)N1C2CCC1C(Nc1cnc(C(F)(F)F)cn1)C2 (racemic)")
0.36
>>> test_value("O=C(c1cc(F)ccc1-n1nccn1)N1C2CCC1C(COc1ccc(F)cn1)C2 (racemic)")
0.81

====

Reported concentration at 0.5 h values are given for each entry in this list.
Test: Drug concentration in Sprague-Dawley rat plasma at 10 mg/kg, po after 0.5 hrs by LC-MS/MS analysis
Assay type: ADME, organism-based
quantity-kind: concentration at 0.5 h

>>> test_value("O=C(c1cccc(F)c1-c1ncccn1)N1[C@@H]2CC[C@H]1[C@H](Nc1ncc(C(F)(F)F)cc1F)C2")
"837 ng/mL"
>>> test_value("O=C(c1cccc(F)c1-c1ncccn1)N1[C@@H]2CC[C@H]1[C@H](Nc1ccc(C(F)(F)F)cn1)C2")
"586 ng/mL"
>>> test_value("O=C(c1c(F)cccc1-c1ncccn1)N1[C@@H]2CC[C@H]1[C@H](Nc1cnc(C(F)(F)F)cn1)C2")
"1600 ng/mL"
>>> test_value("O=C(c1cccc(F)c1-c1ncccn1)N1[C@@H]2CC[C@H]1[C@H](Nc1cnc(C(F)(F)F)cn1)C2")
"1190 ng/mL"
>>> test_value("O=C(c1ccccc1-c1ncccn1)N1[C@@H]2CC[C@H]1[C@H](Nc1cnc(C(F)(F)F)cn1)C2")
"1480 ng/mL"

Each recorded value in this set is attributed to ChEMBL document CHEMBL4725448.
